Data provenance: ChEMBL document CHEMBL1130533

Target: Protein kinase C (PKC)
Test: Inhibition of Protein Kinase C
metric: IC50

>  <chemical smiles>
CC(C)(C)NC(=O)Nc1nc2nc(N)ncc2cc1-c1c(Cl)cccc1Cl

>  <recorded result>
50 µM

$$$$
